# System: TRPM6
# testConditions: concentration: 1 μM, replicates: in singlicate; n = 1;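 note: KINOMEscan kinase panel screen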
experimentalReadout: %Inh (%)
Numbers only, in %.

>>> observedvalue("CNCc1ccc2nc(NC(=O)c3ccc(C(C)(C)C)cc3)cn2c1")
1
>>> observedvalue("O=c1cc(N2CCOCC2)nc2n(Cc3ccccc3F)ccn12")
0
>>> observedvalue("Cc1cccc2c(-c3ccncn3)c(-c3ccc(F)cc3)nn12")
0
>>> observedvalue("Cc1ccc(NC(=O)Nc2ccc(Cl)cc2)cc1-c1ccc(C(=O)Nc2ccncc2)cc1")
14

I have 8 molecules here; please give me %Inh for each one.
1. Fc1ccc(-c2nc3n(c2-c2ccncc2)CCS3)cc1
2. COc1ccc(Nc2nccc(-c3ccc(NC(=O)c4cc5cc(F)ccc5[nH]4)cc3)n2)cc1
3. O=C1NC(=O)C(c2ccc(Cl)cc2)=C1Nc1cccc(Cl)c1
4. CS(=O)(=O)CCNCc1nc(-c2ccc3ncnc(Nc4ccc5c(cnn5Cc5ccccc5)c4)c3c2)cs1.Cl.Cl
5. COc1ccc(Nc2nccc(N3CCC(NC(=O)C(C)c4ccc(Cl)cc4)C3)n2)cc1 (stereo not drawn)
6. CNc1nc(-c2ccc3c(N)n[nH]c3c2)cc(N2C[C@@H](C(=O)NC3CCCCC3)OC[C@H]2C)n1
7. Cn1cncc1-c1cc2c(Nc3ccc(OCc4ccccc4)cc3)ncnc2cn1
8. Cl.Cl.Cl.N#Cc1ccc(CCNc2nccc(-c3cccc(CN4CCNCC4)c3)n2)cc1

Reply:
1: 23; 2: 0; 3: 0; 4: 0; 5: 1; 6: 0; 7: 12; 8: 0

I have 3 molecules here; please give me %Inh for each one.
1. CS(=O)(=O)CCNCc1nc(-c2ccc3ncnc(Nc4ccc(OCc5ccccc5)c(Cl)c4)c3c2)cs1.Cl
2. Fc1ccc(-c2nn3cccc(F)c3c2-c2ccncc2)cc1
3. Cc1cnc(N)c(/C=C/c2cncc(C(=O)NCCc3ccc(Cl)cc3Cl)c2)c1.Cl

Reply:
0
0
0

I have 3 molecules here; please give me %Inh for each one.
1. COc1cccc(NC(=O)Nc2ccc(C)c(-c3ccc(C(=O)Nc4ccncc4)cc3)c2)c1
2. Nc1nccc(-c2c(-c3ccc(F)cc3)ncn2C2CCN(Cc3ccccc3)CC2)n1
3. CS(=O)(=O)Cc1ccc(Nc2nccc(-c3c(-c4cccc(NC(=O)C5CCCCC5)c4)nn4ncccc34)n2)cc1

Reply:
[31, 0, 0]

---

# Test system: GSK3A
# testConditions: concentration: 1 μM, replicates: in singlicate; n = 1
experimentalReadout: %Inh (%)
One number for each entry, in %.

Please review the entries below; each comes with its answer.
>>> observedvalue("Cn1cncc1C(=O)NC1CCN(c2ccnc(Nc3ccc(F)cc3)n2)C1 (stereo not shown)")
12
>>> observedvalue("c1ccc(-c2ccnc3[nH]ccc23)cc1")
22

I have 6 compounds here; please give me %Inh for each one.
1. O=C1NC(=O)C(c2ccc(Cl)cc2)=C1Nc1cccc(Cl)c1
2. Cl.Cl.Cl.N#Cc1ccc(CCNc2nccc(-c3cccc(CN4CCNCC4)c3)n2)cc1
3. Cc1cccc2c(-c3ccncn3)c(-c3ccc(F)cc3)nn12
4. COc1nccc(-c2c(-c3ccc(F)cc3)ncn2CCCN2CCOCC2)n1
5. CCn1c(-c2c(N)noc2C)nc2cnccc21
6. Cn1cncc1-c1cc2c(Nc3ccc(OCc4ccccc4)cc3)ncnc2cn1

Reply:
1. 0
2. 31
3. 1
4. 17
5. 0
6. 8
